Molecular target: T1, mucin domain-deleted Sudan GP (GPdMuc) (Sudan virus (SUDV), UniProt Q7T9D9 33-632)
T1 construct: also called Sudan GPdMuc; GP(S)dMuc
Experiment: ELISA on coated GP

{"columns": ["Binder", "Result Operator", "EC50 [µg/mL]"],
 "data": [
  ["antibody 206L (antibody, V domains shown) VH: EVQLVESGGGVVQPGGSLRLSCAASGFTFDDYAMHWVRQAPGKGLEWVSGISWSGGNTYYADSVKGRFTVSRENAKNSLYLQMNRLRAEDTAFYNCARTSQGGAVVFSAPNYWGQGVLVTVSS VL: QSVLTQAPSVSGAPGQRVTISCTGSSSNIGGYYVQWYQQLPGRAPKLLIYENNKRPSGVSDRFSGSRSASSASLTITGLQSEDEADYYCQSYDSRLNGYIFGGGTRLTVL", "=", 0.2],
  ["antibody 231L (antibody, V domains shown) VH: EVQLVESGGGLVQPGGSLRLSCAASAFTFDDYAMHWVRQAPGKGLEWVSGITWSGLSTYYADSVKGRFTISRDNAKNSLYLQMNSLRVEDTALYYCAKSGNNSPFSGLDSWGQGAVVTVSS VL: QSVLTQPPSVSGAPGQRVTVSCTGSSSNIGAGSYVQWYQQLPGTAPKLLIYENNKRPSGVSDRFSGSKSGTSASLTITGLQSEDEADYYCQSYDSSLNAYIFGAGTRLTVL", "=", 0.02],
  ["antibody 232L (antibody, V domains shown) VH: KSQLVESGGGLVQPGGSLRLSCAASGFTFDAYAMHWVRQAPGEGLEWVTAISWSGSSTYYADSVKGRFTFSRDNAKNSLYLEMNSLRADDTAFYYCVKGGVYNWFDVWGPGVLVTVSS VL: QSVLTQPPSVSGAPGQRVTISCTGSRSNIGGYYVSWYQQFPGTTPKLLIYQDNKRPSGVSDRFSGSKSGTSASLTITGLQTEDEADYYCLSYDSSLNGWVFGGGTRLTVL", ">", 10]
]}
